System Name: human TLR7 (Homo sapiens, UniProt Q9NYK1)
Construct: host or cells: HEK-Blue hTLR7 cells (HEK293-derived reporter line; that the line is stably transfected with the human TLR7 gene is own knowledge of the vendor's product)
Sequence (Q9NYK1 27-1049): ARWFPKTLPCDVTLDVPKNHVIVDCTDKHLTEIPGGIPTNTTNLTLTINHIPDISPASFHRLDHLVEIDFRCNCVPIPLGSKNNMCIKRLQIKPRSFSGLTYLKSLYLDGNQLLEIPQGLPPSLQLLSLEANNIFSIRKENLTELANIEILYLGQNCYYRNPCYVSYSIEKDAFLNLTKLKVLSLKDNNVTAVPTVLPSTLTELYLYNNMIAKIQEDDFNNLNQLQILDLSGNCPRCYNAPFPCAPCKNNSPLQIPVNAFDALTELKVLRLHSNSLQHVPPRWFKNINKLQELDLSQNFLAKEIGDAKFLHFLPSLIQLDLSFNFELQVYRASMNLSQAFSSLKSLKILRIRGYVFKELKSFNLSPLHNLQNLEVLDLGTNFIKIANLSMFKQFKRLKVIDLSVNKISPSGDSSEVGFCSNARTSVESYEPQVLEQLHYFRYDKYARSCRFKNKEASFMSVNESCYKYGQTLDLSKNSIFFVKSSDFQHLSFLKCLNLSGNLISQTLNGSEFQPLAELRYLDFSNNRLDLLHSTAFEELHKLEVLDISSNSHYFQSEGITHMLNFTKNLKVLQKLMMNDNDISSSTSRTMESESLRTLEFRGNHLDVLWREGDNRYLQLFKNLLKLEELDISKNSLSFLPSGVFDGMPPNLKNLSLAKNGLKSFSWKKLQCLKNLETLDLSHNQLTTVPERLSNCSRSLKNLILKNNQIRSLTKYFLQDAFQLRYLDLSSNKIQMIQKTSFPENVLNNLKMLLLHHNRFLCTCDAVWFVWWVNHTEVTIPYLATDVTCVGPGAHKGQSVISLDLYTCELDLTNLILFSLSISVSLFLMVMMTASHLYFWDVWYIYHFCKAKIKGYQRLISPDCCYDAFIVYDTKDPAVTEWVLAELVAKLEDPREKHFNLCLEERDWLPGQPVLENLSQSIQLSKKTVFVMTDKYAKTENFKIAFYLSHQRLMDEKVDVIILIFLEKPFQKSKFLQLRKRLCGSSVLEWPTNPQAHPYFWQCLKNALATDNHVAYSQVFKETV
Method Description: Agonistic activity of compounds on HEK-Blue hTLR7 cells (QUANTI-Blue reporter, OD620)
Format: cell-based
Measurement Context: HEK-Blue hTLR7 cells; OD620 at which the activation effect reached the maximum
Assay Readout: Emax (OD620)
Give just the numeric value; OD620 need not be written.

The value of Emax measured for the compound CCCCc1nc2c(N)nc3cc(C4=CCN(C)CC4)sc3c2[nH]1 [Compound 8] turned out to be 0.56

The value of Emax measured for the compound CCCCc1nc2c(N)nc3cc(C)sc3c2n1CC1CCN(C(=O)CCOCCOCCN)CC1 [Compound 17] turned out to be 2.23

The value of Emax measured for the compound CCCCc1nc2c(N)nc3cc(C4CCN(C)CC4)sc3c2n1CC1CCN(C)CC1 [Compound 38] turned out to be 0.49

The value of Emax measured for the compound CCCCc1nc2c(N)nc3cc(C4CCN(C(C)=O)CC4)sc3c2n1CC1CCOCC1 [Compound 59] turned out to be 1.45

The value of Emax measured for the compound CCCCc1nc2c(N)nc3ccsc3c2n1CC1CCNCC1 [Compound 25] turned out to be 2.08
